Measured kph(rel) (relative rate of photobleaching) of individual entries
- experiment-notes: Photobleaching under constant illumination from a halogen tungsten lamp filtered through glass
- Type: physicochemical
- test-parameters: MeOH, with respect to standard I-TBA in MeOH
endpoint-name: kph(rel) (relative rate of photobleaching)

                                   molecule  value_reported
0  Cn1c([O-])c(/C=C/C=C/c2cc[n+]3c(c2)C(C)(C)c2ccccc2-3)c(=O)n(C)c1=O [AI-BA]             200
1  CCN1C(=O)\C(=C/C=C/C=C2/N(C)c3ccccc3C2(C)C)C(O)N(CC)C1=S (stereo not drawn) [I-TBA, reference compound]            1.00
2  C[n+]1ccc(/C=C/C=C/C2=C([O-])c3ccccc3S2(=O)=O)cc1 [P-SO(4)]              82
3  CC1(C)c2ccccc2-[n+]2ccc(/C=C/C3=C([O-])c4ccccc4S3(=O)=O)cc21 [AI-SO(2)]             2.1
4  CC1(C)c2ccccc2-[n+]2ccc(/C=C/C=C/C3=C(O)c4ccccc4S3(=O)=O)cc21 [AI-SO]             261
5  CN1/C(=C/C=C/C=C2/C(=O)c3ccccc3S2(=O)=O)C(C)(C)c2ccccc21 [I-SO, reference compound]            1.56

---

- experiment-notes: Absorption and fluorescence spectra, extinction coefficient, fluorescence quantum yield
- Format: physicochemical
- test-parameters: Table 10, OcOH
Binary call on Observed absorption λmax: MET from 600 nm upward, NOT MET beneath that.

In [3]: df
Out[3]:
                                   compound  discrete_label
0  CC1(C)c2ccccc2-[n+]2ccc(/C=C/C3=C([O-])c4ccccc4S3(=O)=O)cc21 [AI-SO(2)]         NOT MET
1  Cn1c([O-])c(/C=C/C=C/c2cc[n+]3c(c2)C(C)(C)c2ccccc2-3)c(=O)n(C)c1=O [AI-BA]             MET
2  C[n+]1ccc(/C=C/C2=C([O-])c3ccccc3S2(=O)=O)cc1 [P-SO(2)]         NOT MET
3  CC1(C)c2ccccc2-[n+]2ccc(/C=C/C=C/C3=C(O)c4ccccc4S3(=O)=O)cc21 [AI-SO]             MET
4  CCn1c([O-])c(/C=C/C=C/c2cc[n+]3c(c2)C(C)(C)c2ccccc2-3)c(=O)n(CC)c1=S [AI-TBA]             MET

---

- experiment-notes: Absorption and fluorescence spectra, extinction coefficient, fluorescence quantum yield
- Type: physicochemical
- test-parameters: C6H6
Under this convention, met denotes Absorption energy Eabs Exp strictly below 2 eV and not met denotes Absorption energy Eabs Exp at or above 2 eV.

>>> print(df.to_string())
                                   compound  discrete_label
0  CN1/C(=C/C=C/C=C2/C(=O)c3ccccc3S2(=O)=O)C(C)(C)c2ccccc21 [I-SO, reference compound]         not met
1  CC1(C)c2ccccc2-[n+]2ccc(/C=C/C=C/C3=C(O)c4ccccc4S3(=O)=O)cc21 [AI-SO]             met
2  CCn1c([O-])c(/C=C/C=C/c2cc[n+]3c(c2)C(C)(C)c2ccccc2-3)c(=O)n(CC)c1=S [AI-TBA]             met
3  Cn1c([O-])c(/C=C/C=C/c2cc[n+]3c(c2)C(C)(C)c2ccccc2-3)c(=O)n(C)c1=O [AI-BA]             met
4  CCN1C(=O)\C(=C/C=C/C=C2/N(C)c3ccccc3C2(C)C)C(O)N(CC)C1=S (centres unmarked) [I-TBA, reference compound]         not met
